Could you please report measured inhibition for the items listed next?
- target or system: Genome polyprotein (Dengue virus type 2 (strain 16681-PDK53)) (UniProt P29991)
- assay name: flavivirus cap methylation enzyme inhibition – biochemical, confirmation dose response, primary screen (AID 588689)
- test settings: Dengue-2 NS5 methyltransferase capping enzyme assay, at 25 µM, hits give high values
The campaign covered roughly 340,000 compounds. About 1,000 (0.29%) were called active. A selection follows. Measured potencies and affinities stand elsewhere.
One number for each entry, in %.

Use these answered entries as a reference point.
molecule	readout value
O=c1c2cc([N+](=O)[O-])cc([N+](=O)[O-])c2[nH]n1-c1ccccc1	22.2
Cc1[nH]n(-c2ccccc2)c(=O)c1N=Nc1cccc([N+](=O)[O-])c1	-3.97
Cc1cc(NS(=O)(=O)c2ccc(NC(=O)CSc3nc4sc(C(=O)O)c(C)c4c(=O)[nH]3)cc2)no1	1.64
COc1cc(C(=O)NCC(=O)N2CCN(S(=O)(=O)c3ccccc3C(F)(F)F)CC2)cc(OC)c1OC	-3.36
Cc1cc(C)nc(SCC(=O)Nc2ccc(S(=O)(=O)Nc3cc(C)on3)cc2)n1	-0.67
O=C1c2ccccc2NC(c2ccc(-c3ccc(F)cc3)o2)N1O (stereo unspecified)	13.4
CC(C)COc1cccc(C(=O)N(C)CC(=O)Nc2cccc3ccccc23)c1	-6.94
Cc1ccsc1/C=N/NC(=O)c1ccncc1	-0.74

State recorded inhibition for all listed molecules.
1. COc1ccc([N+](=O)[O-])cc1-c1[nH]c(-c2ccc(C(=O)O)cc2)nc1-c1ccccc1
2. O=C1c2ccccc2C(=O)c2c1oc(C(F)(F)F)c2C(=O)c1ccccc1
3. Cc1ccc(C(=O)c2c[nH]cc2-c2ccccc2)cc1
4. Cc1ccc(C(=O)c2coc3ccc(O)cc23)cc1
5. Cc1[nH]n(-c2cccc([N+](=O)[O-])c2)c(=O)c1-c1ccccc1

-2.87
-2.07
-3.21
2.6
-10.7

---

Provide the recorded inhibition for the entries that follow.
- target or system: Genome polyprotein (Dengue virus type 2 (strain 16681-PDK53)) (UniProt P29991)
- assay name: flavivirus cap methylation enzyme inhibition – biochemical, confirmation dose response, primary screen (AID 588689)
- test settings: Dengue-2 NS5 methyltransferase capping enzyme assay, at 25 µM, hits give high values
The campaign covered roughly 340,000 compounds. About 1,000 (0.29%) were called active. These entries were drawn from the full list. Potency and affinity values are given separately.
One number for each entry, in %.

Please review the following examples before continuing.
molecule	inhibition (%)
COc1cc(C(O)C(=O)O)ccc1O (centres undefined)	-7.33
CCCCNC(=O)COC(=O)c1c2c(nc3ccccc13)CCC2	4.4
CCc1ccc(C)[n+](CC(=O)c2cccs2)c1	-10.5
COc1cc(C)ccc1OCCOc1ccccc1Cl	-4.77

For each of the molecules below, state inhibition.
1. COc1cc(NC(=O)c2ccc(COCC(F)(F)F)o2)cc(OC)c1OC
2. COc1ccc(N2C(=O)CC(C)(C)CC2=O)cc1OC
3. Cc1ccc(C)c(C(=O)CCC(=O)Nc2cccnc2)c1
4. COc1cc(/C=C/c2ccc3cccc(O)c3n2)c(Br)cc1O
5. CCOc1ccc(CC(=O)C2C(=O)CC(C)(C)CC2=O)cc1OCC
6. COc1ccc(NC(=O)c2cccc3c2C(=O)c2ccc(-c4ccc(F)cc4OCc4ccccc4)cc2S3(=O)=O)cc1
7. O=C1C(SCCO)=C(SCCO)C(=O)c2ccccc21

1: 0; 2: 0; 3: -3.23; 4: -37.2; 5: -13.1; 6: -0.7; 7: -3.66

---

- target or system: Genome polyprotein (Dengue virus type 2 (strain 16681-PDK53))
- assay name: flavivirus cap methylation enzyme inhibition – biochemical, confirmation dose response, primary screen (AID 588689)
- test settings: Dengue-2 NS5 methyltransferase capping enzyme assay, at 25 µM, hits give high values
In all, about 340,000 compounds went through this assay and about 1,000 (0.29%) were called active. These entries were drawn from the full list. Potency and affinity values are given separately.
recorded endpoint: inhibition (%)
Answers are plain numbers, in %.

Example entries begin here.
compound	endpoint unit	inhibition
COc1ccc(NC(=O)N(C)C[C@@H]2OCc3cn(nn3)CCCC(=O)N([C@H](C)CO)C[C@H]2C)cc1	%	-1.7
COC(=O)Cn1c(CCS(=O)(=O)c2ccc(Cl)cc2)nc2ccccc21	%	-5.46
Nc1ccc(C(=O)N/N=C/c2cn(Cc3ccccc3F)c3ccccc23)cc1	%	-1.3
COc1ccc(CNS(=O)(=O)NCc2ccc(C)cc2)cc1OC	%	-10.9
CC1CC1C(=O)N(C)CC(=O)Nc1ccccc1Br (stereo unspecified)	%	-5.16
Cc1cccc(N2CCN(c3nc(C)cc(C)c3C#N)CC2C)c1 (stereo unspecified)	%	-4.66
Clc1ccc(CN2CCSCC2)c(Cl)c1	%	-3.29
O=C(Nc1c[nH]c(=O)[nH]c1=O)c1cccc([N+](=O)[O-])c1	%	-9.65

Take each entry in turn and give its inhibition.
1. C=CCN1CCN(C(c2cc(OC)ccc2OC)c2nnnn2CC2CCCO2)CC1 (stereo unspecified)
2. COc1cccc(-c2nc(CS(=O)(=O)CC(=O)N3CCc4ccccc4C3)c(C)o2)c1
3. CCN(CC)C(=O)CCSc1nnc(-c2ccncc2)o1

[1.37, 6.54, -3.83]

---

- target or system: Genome polyprotein (Dengue virus type 2 (strain 16681-PDK53))
- assay name: flavivirus cap methylation enzyme inhibition – biochemical, confirmation dose response, primary screen (AID 588689)
- test settings: Dengue-2 NS5 methyltransferase capping enzyme assay, at 25 µM, hits give high values
Screen size: about 340,000 compounds; about 1,000 (0.29%) were called active. A selection follows. Potency and affinity values are given separately.
Please go through the items and note down their inhibition.
Give bare numbers, in %.

// known answers, use as guide
compound	recorded endpoint	readout value
COCCN(C(=O)c1csnn1)C(C(=O)NC(C)(C)C)c1cccc(OC)c1 (stereo unspecified)	inhibition	0
CC1(C)OC(=O)C(=NNc2ccccc2)C(=O)O1	inhibition	-0.73
O=C(O)CCCN1C(=O)/C(=C\c2ccco2)SC1=S	inhibition	47.7
COc1cc2c(cc1OC)C(COc1cccc(C(F)(F)F)c1)NCC2 (stereo unspecified)	inhibition	6.97
Cc1nn(-c2ccccc2)c(Cl)c1/C=C1\SC(=S)N(C)C1=O	inhibition	4.37
CC1=CC(=O)C(C(C)C)=C/C1=N/OS(=O)(=O)c1ccccc1	inhibition	-4.66

// for each compound in input: emit inhibition
1. O=C(N/N=C/c1ccccc1O)C(=O)Nc1ccccn1
2. O=C1NC(=O)/C(=C/c2ccccc2OCc2ccccc2)S1
3. Cc1nn(-c2ccccc2)c(Cl)c1/C=C1\C(=O)N(C)C(=S)N1C
4. O=C1NC(=O)/C(=C\c2ccccc2OCc2ccccc2)S1
5. CN1C(=O)/C(=C\c2ccccc2OCc2ccccc2)SC1=S

[-0.76, 11.6, -12.7, -0.78, -2.61]

---

Task for the reader: assign each of the following compounds its reported inhibition.
- target or system: Genome polyprotein (Dengue virus type 2 (strain 16681-PDK53)) (UniProt P29991)
- assay name: flavivirus cap methylation enzyme inhibition – biochemical, confirmation dose response, primary screen (AID 588689)
- test settings: Dengue-2 NS5 methyltransferase capping enzyme assay, at 25 µM, hits give high values
In all, about 340,000 compounds went through this assay and about 1,000 (0.29%) were called active. Only a sample is shown. Results with a measured potency or affinity are listed apart.
Answers are plain numbers, in %.

Solved entries:
compound	target or system	endpoint unit	inhibition
O=C1NC(=O)/C(=C/c2cccc(O)c2)N1	Genome polyprotein (Dengue virus type 2 (strain 16681-PDK53)) (UniProt P29991)	%	1.96
Cc1ccc2c(c1C)NC(C(=O)O)C1CC=CC21 (stereo not drawn)	Genome polyprotein (Dengue virus type 2 (strain 16681-PDK53)) (UniProt P29991)	%	9.74
O=C1NC(=S)S/C1=C\c1ccc2ccccc2c1	Genome polyprotein (Dengue virus type 2 (strain 16681-PDK53)) (UniProt P29991)	%	-15.5
COc1ccc(/C=C(\C#N)C(=O)OCC(=O)N2CC(C)OC(C)C2)cc1 (stereo not drawn)	Genome polyprotein (Dengue virus type 2 (strain 16681-PDK53)) (UniProt P29991)	%	-2.3
O=C1c2ccccc2C(=O)c2c1ccc(O)c2O	Genome polyprotein (Dengue virus type 2 (strain 16681-PDK53)) (UniProt P29991)	%	0

Could you tell me inhibition for each of these compounds? They are listed below.
1. COc1cc(/C=C2/C(=O)N(c3ccc(C(=O)O)cc3)N=C2C)cc(OC)c1O
2. O=C(O)c1cccc2c1-c1c(cccc1[N+](=O)[O-])C2
3. C=CCOc1ccc(/C=C2\SC(=S)N(N3CCOCC3)C2=O)cc1
4. Cc1cc(=O)oc2c(O)c(O)ccc12
5. CC(C)NS(=O)(=O)c1ccc(OCC(=O)NCc2ccco2)cc1
6. CN1CCN(C2=C(Cl)C(=O)N(c3cccc(Cl)c3)C2=O)CC1

1: -28.1; 2: -1.17; 3: -7.66; 4: 0.73; 5: -2.21; 6: 12.9

Each compound below has a recorded value; state its inhibition.
1. O=S(=O)(NCc1cccc(C(F)(F)F)c1)NCc1ccccc1F
2. Cc1cc(C)n2nc(SCC(=O)N(C)c3c(N)n(Cc4ccccc4)c(=O)[nH]c3=O)nc2n1
3. CCCCNC(=O)c1onc(CSc2ccccc2CC)c1C(=O)O
4. COc1ccc(/C=C2\N=C(C)N(c3ccc(C(=O)O)cc3)C2=O)cc1OC
5. Cc1ccc(OCCN2C(=O)c3ccccc3C2=O)c(C)c1

[-7.25, -7.52, 6.29, -13.8, 1.61]

Give inhibition for each of the items listed below.
1. COc1cc(/C=C2/C(=O)N(c3cccc(Br)c3)N=C2C)cc(OC)c1O
2. CCCCNC(=O)c1onc(CSc2ccccc2C)c1C(=O)O

-25.2
7.73

Batch of 3 compounds: report inhibition for each.
1. CCN(C(=O)COC(=O)c1ccccc1NCCO)c1cccc2ccccc12
2. COc1ccccc1OCCCOc1cccc(/C=C2\SC(=O)NC2=O)c1
3. CCN(CC(=O)Nc1ccc(NC(C)=O)cc1)C(=O)c1ccc(N2CCC(C)CC2)c([N+](=O)[O-])c1

1: 6.52; 2: -1.96; 3: -0.77

# map each compound to its inhibition
1. Cc1ccc(N2C(=O)C(Cl)=C(N3CCOCC3)C2=O)c(C)c1
2. O=C(O)C1CCC(NSc2ccccc2[N+](=O)[O-])CC1 (stereo not drawn)

1. 5.79
2. 7.73
